- experiment.description: Pharmacokinetic study in mice (plasma, brain, CSF)
- Type: in vivo, mouse
- measurement.setup: male, C57BL/6, mouse, brain, intravenous 5 mg/Kg single dose
value.type: AUC(0-inf) (ng·h/mL)
The reply should contain only the number, in ng·h/mL.

Form: compound = CNc1nc(Nc2ccc(C(=O)N3CCN(C[C@H]4CC[C@H](CSC(C)(C)[C@H](NC(=O)C5(F)CC5)C(=O)N5C[C@H](O)CC5C(=O)NCc5ccc(-c6scnc6C)cc5)CC4)CC3)cc2OC)ncc1Cl (stereo partly shown) ; AUC(0-inf) = 349

* * *

Each entry below carries its recorded inhibition at 1 µM.
- Test system: Rab10 pThr73
- experiment.description: Rab10 Thr73 dephosphorylation (immunoblot) in WT MEFs
- Format: cell-based, mouse
- measurement.setup: Mus musculus, 1 μM/24 h treatment; read-out: pRab10 inhibited in WT MEFs

molecule="CNc1nc(Nc2ccc(C(=O)N3CCN(CCCSC(C)(C)[C@H](NC(=O)C4(F)CC4)C(=O)N4C[C@H](O)C[C@H]4C(=O)NCc4ccc(-c5scnc5C)cc4)CC3)cc2OC)ncc1Cl [SD82]" assay_target="Rab10 pThr73" value_type="inhibition at 1 µM" test_result="30 to 90%"
molecule="CNc1nc(Nc2ccc(OC3CCN(C[C@H]4CC[C@H](CSC(C)(C)C(NC(=O)C5(F)CC5)C(=O)N5C[C@H](O)C[C@H]5C(=O)NCc5ccc(-c6scnc6C)cc5)CC4)CC3)cc2OC)ncc1Cl (stereo partly drawn) [XL02017]" assay_target="Rab10 pThr73" value_type="inhibition at 1 µM" test_result="80 to 100%"

In the following, a different molecule is considered.
CNc1nc(Nc2ccc(OCCOCCOCCOCCSC(C)(C)[C@@H](NC(=O)C3(F)CC3)C(=O)N3C[C@H](O)C[C@H]3C(=O)NCc3ccc(-c4scnc4C)cc3)cc2OC)ncc1Cl [XL01145] yielded inhibition at 1 µM of 30 to 100%

* * *

- assay.target: LRRK2^G2019S (Mus musculus, UniProt Q5S006, G2019S)
- Construct: endogenous in cells; host or cells: LRRK2[G2019S] mouse embryonic fibroblasts (MEFs)
- Sequence (Q5S006 whole entry G2019S): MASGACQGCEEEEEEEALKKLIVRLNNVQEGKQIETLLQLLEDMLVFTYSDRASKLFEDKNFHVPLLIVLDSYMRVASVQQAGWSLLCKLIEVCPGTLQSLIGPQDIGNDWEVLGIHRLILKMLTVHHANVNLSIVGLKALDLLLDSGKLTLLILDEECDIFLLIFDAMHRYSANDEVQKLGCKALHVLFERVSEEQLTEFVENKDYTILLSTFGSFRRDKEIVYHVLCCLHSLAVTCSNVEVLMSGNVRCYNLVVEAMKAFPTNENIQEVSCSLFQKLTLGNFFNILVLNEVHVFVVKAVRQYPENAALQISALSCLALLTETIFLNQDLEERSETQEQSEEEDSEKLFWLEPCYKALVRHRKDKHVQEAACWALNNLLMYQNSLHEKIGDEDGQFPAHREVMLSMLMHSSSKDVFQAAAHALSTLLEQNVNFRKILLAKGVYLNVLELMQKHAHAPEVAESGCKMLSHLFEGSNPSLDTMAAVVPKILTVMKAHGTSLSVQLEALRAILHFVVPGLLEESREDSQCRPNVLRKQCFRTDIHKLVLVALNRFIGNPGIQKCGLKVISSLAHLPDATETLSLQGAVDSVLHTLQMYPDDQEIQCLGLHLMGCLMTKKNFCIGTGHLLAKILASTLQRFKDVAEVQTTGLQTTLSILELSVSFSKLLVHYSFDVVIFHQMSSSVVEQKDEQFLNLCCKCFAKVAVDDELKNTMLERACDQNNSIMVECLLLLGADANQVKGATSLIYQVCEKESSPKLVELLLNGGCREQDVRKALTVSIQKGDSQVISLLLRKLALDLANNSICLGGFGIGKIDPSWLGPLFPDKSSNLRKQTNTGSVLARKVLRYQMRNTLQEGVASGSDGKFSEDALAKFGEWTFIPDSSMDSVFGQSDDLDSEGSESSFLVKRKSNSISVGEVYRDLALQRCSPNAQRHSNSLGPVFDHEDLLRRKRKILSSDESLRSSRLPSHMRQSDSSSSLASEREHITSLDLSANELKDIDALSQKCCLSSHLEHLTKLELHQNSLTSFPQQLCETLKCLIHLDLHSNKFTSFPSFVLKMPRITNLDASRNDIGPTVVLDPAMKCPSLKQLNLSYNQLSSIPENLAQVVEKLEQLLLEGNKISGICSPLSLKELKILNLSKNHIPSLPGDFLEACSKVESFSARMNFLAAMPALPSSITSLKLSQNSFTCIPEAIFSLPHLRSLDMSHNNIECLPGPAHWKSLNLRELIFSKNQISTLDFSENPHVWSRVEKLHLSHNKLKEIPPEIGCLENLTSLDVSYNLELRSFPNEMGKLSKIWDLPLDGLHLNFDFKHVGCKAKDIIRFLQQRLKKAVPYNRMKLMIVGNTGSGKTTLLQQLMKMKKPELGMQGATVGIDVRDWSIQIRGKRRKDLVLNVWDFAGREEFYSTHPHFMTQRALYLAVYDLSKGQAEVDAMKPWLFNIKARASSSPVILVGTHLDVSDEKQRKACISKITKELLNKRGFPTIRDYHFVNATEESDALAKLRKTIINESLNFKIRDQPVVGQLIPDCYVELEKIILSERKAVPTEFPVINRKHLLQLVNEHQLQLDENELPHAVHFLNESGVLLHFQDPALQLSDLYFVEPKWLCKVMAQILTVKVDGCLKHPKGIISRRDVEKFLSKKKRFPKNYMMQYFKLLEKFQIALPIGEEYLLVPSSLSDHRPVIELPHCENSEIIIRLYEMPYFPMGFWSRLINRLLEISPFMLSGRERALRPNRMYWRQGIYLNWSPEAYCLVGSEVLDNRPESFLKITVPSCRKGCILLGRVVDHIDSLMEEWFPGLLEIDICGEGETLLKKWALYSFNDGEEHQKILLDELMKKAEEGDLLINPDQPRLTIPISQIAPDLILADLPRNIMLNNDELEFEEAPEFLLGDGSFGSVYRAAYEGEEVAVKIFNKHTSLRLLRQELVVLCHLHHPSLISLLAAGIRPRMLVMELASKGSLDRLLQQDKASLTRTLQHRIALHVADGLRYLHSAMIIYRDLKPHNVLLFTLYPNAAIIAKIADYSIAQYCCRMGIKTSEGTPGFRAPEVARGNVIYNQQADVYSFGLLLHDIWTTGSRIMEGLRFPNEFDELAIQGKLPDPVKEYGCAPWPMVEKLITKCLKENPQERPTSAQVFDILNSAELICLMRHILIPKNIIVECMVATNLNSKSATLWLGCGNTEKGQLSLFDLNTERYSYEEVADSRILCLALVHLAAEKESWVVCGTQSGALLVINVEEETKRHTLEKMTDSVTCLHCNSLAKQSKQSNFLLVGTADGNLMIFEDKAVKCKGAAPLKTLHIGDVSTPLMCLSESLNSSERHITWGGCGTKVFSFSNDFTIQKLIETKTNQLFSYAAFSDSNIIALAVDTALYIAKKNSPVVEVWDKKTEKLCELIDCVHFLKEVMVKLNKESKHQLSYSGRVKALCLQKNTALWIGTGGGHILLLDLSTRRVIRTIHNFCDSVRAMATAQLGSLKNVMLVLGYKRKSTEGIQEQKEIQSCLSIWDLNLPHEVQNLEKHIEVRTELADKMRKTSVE
- experiment.description: Western blot LRRK2 degradation in LRRK2^G2019S MEFs
- Assay type: cell-based
- measurement.setup: dose response, 4 h treatment; read-out: Dmax on G2019S MEFs
value.type: Dmax (%)
# value in %; strip the unit string

compound="CNc1nc(Nc2ccc(C(=O)N3CCN(C[C@H]4CO[C@H](CSC(C)(C)[C@@H](NC(=O)C5(F)CC5)C(=O)N5C[C@H](O)C[C@H]5C(=O)NCc5ccc(-c6scnc6C)cc5)CO4)CC3)cc2OC)ncc1Cl [XL02098]" test_result=81
compound="CNc1nc(Nc2ccc(C(=O)N3CCN(C[C@H]4CC[C@@H](CSC(C)(C)[C@H](NC(=O)C5(F)CC5)C(=O)N5C[C@H](O)CC5C(=O)NCc5ccc(-c6scnc6C)cc5C)CC4)CC3)cc2OC)ncc1Cl (some centres unmarked) [XL02059]" test_result=76
compound="CNc1nc(Nc2ccc(C(=O)N3CCN(C[C@H]4CC[C@H](CSC(C)(C)[C@H](NC(=O)C5(F)CC5)C(=O)N5C[C@H](O)CC5C(=O)NCc5ccc(-c6scnc6C)cc5C)CC4)CC3)cc2OC)ncc1Cl (some centres unmarked) [XL02048]" test_result=83.5

Lookup result for CNc1nc(Nc2ccc(OC3CCN(C[C@H]4CC[C@H](CSC(C)(C)C(NC(=O)C5(F)CC5)C(=O)N5C[C@H](O)C[C@H]5C(=O)NCc5ccc(-c6scnc6C)cc5)CC4)CC3)cc2OC)ncc1Cl (some centres unmarked) [XL02017] ; measured Dmax: 79

CNc1nc(Nc2ccc(C(=O)N3CCC4(CCN(C[C@H]5CC[C@H](CSC(C)(C)C(NC(=O)C6(F)CC6)C(=O)N6C[C@H](O)C[C@H]6C(=O)NCc6ccc(-c7scnc7C)cc6)CC5)CC4)CC3)cc2OC)ncc1Cl (some centres unmarked) [XL02038] has a reported Dmax of 79

* * *

- Tested on: Rab10 pThr73
- experiment.description: Rab10 Thr73 dephosphorylation (immunoblot) in WT MEFs
- Format: cell-based, mouse
- measurement.setup: Mus musculus, 1 μM/24 h treatment; read-out: pRab10 inhibited in WT MEFs
Item-by-item account of inhibition at 1 µM

Here are 4 compounds together with their reported answers.
compound=CNc1nc(Nc2ccc(C(=O)N3CCN(CCOCCOCCSC(C)(C)[C@H](NC(=O)C4(F)CC4)C(=O)N4C[C@H](O)C[C@H]4C(=O)NCc4ccc(-c5scnc5C)cc4)CC3)cc2OC)ncc1Cl assay_target="Rab10 pThr73" test_result="30 to 90%"
compound="CNc1nc(Nc2ccc(C(=O)N3CCN(C[C@H]4CC[C@H](CSC(C)(C)[C@H](NC(=O)C5(F)CC5)C(=O)N5C[C@H](O)CC5C(=O)NCc5ccc(-c6scnc6C)cc5F)CC4)CC3)cc2OC)ncc1Cl (some centres unmarked)" assay_target="Rab10 pThr73" test_result="80 to 100%"
compound="CNc1nc(Nc2ccc(C(=O)N3C[C@@H](C)N(C[C@H]4CC[C@H](CSC(C)(C)C(NC(=O)C5(F)CC5)C(=O)N5C[C@H](O)C[C@H]5C(=O)NCc5ccc(-c6scnc6C)cc5)CC4)[C@@H](C)C3)cc2OC)ncc1Cl (some centres unmarked)" assay_target="Rab10 pThr73" test_result="80 to 100%"
compound="CNc1nc(Nc2ccc(C(=O)N3CCN(C[C@H]4CC[C@@H](CSC(C)(C)[C@H](NC(=O)C5(F)CC5)C(=O)N5C[C@H](O)CC5C(=O)NCc5ccc(-c6scnc6C)cc5F)CC4)CC3)cc2OC)ncc1Cl (some centres unmarked)" assay_target="Rab10 pThr73" test_result="80 to 100%"

The compound listed as CNc1nc(Nc2ccc(C(=O)N3CCN(CCCN4CCN(c5ccc6c(c5)C(=O)N(C5CCC(=O)NC5=O)C6=O)CC4)CC3)cc2OC)ncc1Cl (centres unmarked) has a reported inhibition at 1 µM of 30 to 90%

* * *

- assay.target: LRRK2^G2019S (Mus musculus, UniProt Q5S006, G2019S)
- Construct: endogenous in cells; host or cells: LRRK2[G2019S] mouse embryonic fibroblasts (MEFs)
- experiment.description: Western blot LRRK2 degradation in LRRK2^G2019S MEFs
- Type: cell-based
- measurement.setup: dose response, 4 h treatment
value.type: DC50 (nM)
Only the number, expressed in nM, is required.

Sample records with DC50:
compound="CNc1nc(Nc2ccc(C(=O)N3CCN(C[C@H]4CC[C@H](CSC(C)(C)[C@H](NC(=O)C5(F)CC5)C(=O)N5C[C@H](O)[C@H](F)C5C(=O)NCc5ccc(-c6scnc6C)cc5)CC4)CC3)cc2OC)ncc1Cl (stereo partly drawn)" assay_target="LRRK2^G2019S (Mus musculus, UniProt Q5S006, G2019S)" test_result=44
compound=CNc1nc(Nc2ccc(C(=O)N3CCN(C[C@H]4CO[C@H](CSC(C)(C)[C@@H](NC(=O)C5(F)CC5)C(=O)N5C[C@H](O)C[C@H]5C(=O)NCc5ccc(-c6scnc6C)cc5)CO4)CC3)cc2OC)ncc1Cl assay_target="LRRK2^G2019S (Mus musculus, UniProt Q5S006, G2019S)" test_result=45

# context switch: different compound, same DC50
The measured DC50 associated with CNc1nc(Nc2ccc(C(=O)N3CCN(C(=O)[C@H]4CC[C@H](CSC(C)(C)[C@H](NC(=O)C5(F)CC5)C(=O)N5C[C@H](O)CC5C(=O)NCc5ccc(-c6scnc6C)cc5)CC4)CC3)cc2OC)ncc1Cl (stereo partly drawn) reads 103

* * *

- experiment.description: Stability in mouse liver microsome
- Assay type: in vitro ADME
- measurement.setup: liver microsomes, read-out: T1/2 in mouse liver microsome
value.type: half-life (min)
Record the value in min, omitting the unit from your answer.

The measured half-life associated with CNc1nc(Nc2ccc(C(=O)N3CCN(C[C@H]4CC[C@H](CSC(C)(C)[C@H](NC(=O)C5(F)CC5)C(=O)N5C[C@H](O)CC5C(=O)NCc5ccc(-c6scnc6C)cc5)CC4)CC3)cc2OC)ncc1Cl (stereo partly shown) reads 3.65

* * *

- experiment.description: Caco-2 permeability
- Type: in vitro ADME
- measurement.setup: human, Caco-2; B − A
value.type: Papp B→A

// sample CNc1nc(Nc2ccc(C(=O)N3CCN(C[C@H]4CC[C@H](CSC(C)(C)[C@H](NC(=O)C5(F)CC5)C(=O)N5C[C@H](O)CC5C(=O)NCc5ccc(-c6scnc6C)cc5)CC4)CC3)cc2OC)ncc1Cl (stereo partly shown) , its Papp B→A was < 1.43 ×10⁻⁶ cm/s

* * *

- experiment.description: Pharmacokinetic study in mice (plasma, brain, CSF)
- Assay type: in vivo, mouse
- measurement.setup: male, C57BL/6, mouse, brain, gavage (oral) 30 mg/Kg single dose
value.type: AUC(0-inf) (ng·h/mL)
// note: answer is a bare numeric in ng·h/mL

Please fill in: AUC(0-inf) reported for CNc1nc(Nc2ccc(C(=O)N3CCN(C[C@H]4CC[C@H](CSC(C)(C)[C@H](NC(=O)C5(F)CC5)C(=O)N5C[C@H](O)CC5C(=O)NCc5ccc(-c6scnc6C)cc5)CC4)CC3)cc2OC)ncc1Cl (stereo partly shown) [XL01126] = 402

Values compiled from patent US20260001875A1.
